B1: Calcium-binding protein 2, residues 155 to 219; numbered along this chain, Q9NPB3 (parent)
chain: RELRDAFREFDTNGDGRISVGELRAALKALLGERLSQREVDEILQDVDLNGDGLVDFEEFVRMMS

variants of: B1; test: abundance fitness (aPCA) (normalised: wild type 0, dead -1); higher = more abundant; growth selection in yeast, the domain comes from the species named; conditions: Homo sapiens
Classify by measured abundance fitness: label 1 if it is equal to or exceeds 0.05, label 0 if it is smaller.

>  <mutation.key>
D5I

>  <class.assignment>
label 0

$$$$
>  <mutation.key>
D48K

>  <class.assignment>
label 1

$$$$

Item D56P with abundance fitness of 0.05 or above? label 0

Item V20A with abundance fitness of 0.05 or above? label 0
